From various publications: IC50 for Non-receptor tyrosine-protein kinase TYK2 (Homo sapiens).

Solved entries (count: 3):
Cc1cnc(Nc2ccc3c(c2)CN(C)C3)nc1N1CC(CC#N)(N2CCC3(CC2)CC3)C1	< 20 nM
CCOCCC1(n2cc(-c3nc(-c4cnn(C)c4)cc4nccn34)cn2)CN(S(=O)(=O)C(F)(F)F)C1	10 to 100 nM
[2H]C1([2H])C([2H])([2H])C2(COc3cccc(-c4cn([C@H]5C[C@@H](N6CC[S+]([O-])CC6)C5)c5ncnc(N)c45)c3F)OC1([2H])C([2H])([2H])C2([2H])[2H]	> 10000 nM

Q: Recorded IC50 of `Cn1cc(-c2cc3nccn3c(-c3ccn([C@H](CCF)[C@@H]4CC4(F)F)c3)n2)cn1` , please.
A: 10 to 100 nM

Q: What would you report for `CC(C)CS(=O)(=O)NC12CC(n3cnc4cnc5[nH]ccc5c43)(C1)C2` ?
A: 111 nM

Q: What do you have for `COc1cc2cc(c1)Nc1nc(ncc1C)Nc1cc(cnc1F)-c1ccc(cc1)C(=O)NCC2` ?
A: > 10000 nM

Q: Try this compound next: C[C@H]1C[C@@H](Nc2c(-c3ncco3)cnc3[nH]ccc23)CN(C(=O)CC#N)C1 (single isomer, unassigned)
A: ≤ 10 nM

###

Record: compiled pIC50 on Non-receptor tyrosine-protein kinase TYK2 (Homo sapiens, UniProt P29597) from multiple reports.
pIC50: −log10 of the molar value.

CNC(=O)c1cnc(-c2cnc3[nH]ccc3c2N[C@@H]2CCCN(C(=O)CC#N)C2)s1	≥ 8.00

Q: Tell me the measured pIC50 of `Cn1cc(-c2cc3nccn3c(-c3cnn(C4(CC#N)CN(CC#N)C4)c3)n2)cn1` , please.
A: > 8.00

Q: Proceed to `O=C1Nc2ccc(cc2)OCc2cc(ccc2OC2CC2)Nc2nccc(n2)-c2ccc1cc2O`
A: 5.00 to 6.00

Q: Would you kindly repeat that for `CN(c1ccccc1CNc1nc(-c2cc(F)c(O)cc2CC(F)(F)F)cc2[nH]nc(C(N)=O)c12)S(=O)(=O)c1ccc(N2CCOCC2)nc1` ?
A: 6.90

Q: Next up: CCC(C1CC1)n1cc(-c2nc(-c3cnn(C[C@@H](O)CO)c3)cn3nccc23)cn1 (single isomer, unassigned)
A: 7.00 to 8.00

Q: Next up: `CCN(c1ccccc1CNc1nc(-c2cc(F)c(O)cc2CC(F)(F)F)cc2[nH]nc(C(N)=O)c12)S(=O)(=O)CC`
A: 6.92

Q: Lookup N#CCC(C1CCCC1)n1cc(-c2nc(-c3ccc(N4CCOCC4)cc3)cc3nccn23)cn1 (stereo not shown)
A: > 8.00

###

pIC50: −log10 of the molar value.
Study the reported pIC50 values for Non-receptor tyrosine-protein kinase TYK2 (Homo sapiens, UniProt P29597) given below; they originate from different publications.

Q: For the record `CN(c1ccccc1CNCc1nc(-c2cc(F)c(O)cc2CC(F)(F)F)cc2[nH]ncc12)S(C)(=O)=O` , what value of pIC50 is listed for Non-receptor tyrosine-protein kinase TYK2 (Homo sapiens, UniProt P29597)?
A: 6.12

Q: Likewise for `CCOC(=O)Cn1cc(Nc2ncc3ccn(CC4(C)CCCCC4)c3n2)cn1` ?
A: > 7.00

Q: // next record `CC=C[C@@H](C1CC1)n1cc(-c2nc(-c3cnn(C)c3)cc3nccn23)cn1`
A: 7.00 to 8.00

Q: // repeat for `Cn1cc(-c2cc3nccn3c(-c3cnn(C4(CC(=O)O)CN(S(=O)(=O)C(F)(F)F)C4)c3)n2)cn1` and report
A: 6.00 to 7.00

Q: Then what about the compound `CCOC(=O)Cn1cc(Nc2ncc3ccn(C[C@H](CC)C(C)C)c3n2)cn1` ?
A: > 7.00

Q: Also need `CCC(CC)n1cc(-c2nc(-c3cnn(C[C@@H](O)CN(C)C)c3)cn3nccc23)cn1` , thanks.
A: 7.00 to 8.00

Q: Again, but for `C=CC(=O)N1Cc2c(-c3ccnc4[nH]ccc34)cnn2C[C@H]1C`
A: < 5.00

Q: Next up: `Cc1cnc(Nc2cnn(C)c2)nc1N1CC(O)(CC2CC2)C1`
A: > 6.70

Q: Entry to check: `Nc1cc2ccc1-c1ccnc(n1)Nc1ccc(OCC3CC(F)(F)C3)c(c1)COCCCCNC2=O`
A: 5.00 to 6.00

Q: Try COc1ccc(CNc2nc(Nc3ccc4c(c3)NCC(O)CO4)ncc2C(N)=O)cc1 (stereo not shown) next.
A: 7.00 to 8.00
